Reference source: patent US20150225369A1

# experimental target: His-tagged human recombinant DDR-2 kinase domain (His-TEV-DDR2 467-855 aa) (Homo sapiens)
# Construct: His-TEV-DDR2 467-855 aa
# procedure text: Autophosphorylation assay for biochemical activity testing of DDR2 (HTRF)
# experimental parameters: biochemical DDR2 autophosphorylation
# Experimental: The autophosphorylation assay was run in two steps: the enzymatic reaction in which His-tagged DDR2 with ATP as co-substrate phosphorylates itself and the detection reaction where a time resolved FRET between XL665® labelled anti-6His antibody bound to the His-tag of the enzyme and cryptate labelled anti-phospho-Tyrosine-antibody (PT66) bound the phosphorylated Tyrosine residue of DDR2 was analysed. The autophosphorylation activity was detectable directly via the increase in HTRF signal. […]
observed property: IC50

Task: What value of IC50 has been recorded for this entry: CNC(=O)c1cc(Oc2ccc(CNC(=O)Nc3cc(C(F)(F)F)c(Cl)cc3OCCNS(C)(=O)=O)cc2)ccn1
Output: 64 nM

Task: What value of IC50 has been recorded for this entry: CNC(=O)c1cc(Oc2ccc(CNC(=O)Nc3ccc(C)cn3)cc2C)ccn1
Output: 780 nM

Task: What value of IC50 has been recorded for this entry: CNC(=O)c1cc(Oc2ccc(CNC(=O)Nc3cc(C(F)(F)F)c(Cl)cc3OCC(=O)OC)cc2)ccn1
Output: 57 nM

Task: What value of IC50 has been recorded for this entry: CNCCOc1cc(Cl)c(C)cc1NC(=O)NCc1ccc(Oc2ccnc(C(=O)NC)c2)c(C)c1
Output: 43 nM

Task: What value of IC50 has been recorded for this entry: O=C(NCc1ccc(Oc2ccncc2)cc1)Nc1ccccc1C(F)(F)F
Output: 20000 nM

Task: What value of IC50 has been recorded for this entry: COc1ccc(C(F)(F)F)cc1NC(=O)NCc1ccc(Oc2ccncc2)cc1
Output: 2 nM

Task: What value of IC50 has been recorded for this entry: O=C(NCc1ccc(Oc2ccncc2)cc1)Nc1cccc(C(F)(F)F)c1
Output: 36 nM

Task: What value of IC50 has been recorded for this entry: CNC(=O)c1cc(Oc2ccc(CNC(=O)Nc3cc(C(F)(F)F)ccc3OCC3CCCN3)cc2)ccn1 (centres unmarked)
Output: 43 nM

Task: What value of IC50 has been recorded for this entry: O=C(NCc1ccc(Oc2ccncc2)cc1)Nc1cc(Cl)c(Cl)cc1Cl
Output: 1400 nM

Task: What value of IC50 has been recorded for this entry: O=C(NCc1ccc(Oc2ccncc2)cc1)Nc1ccc(Br)cc1Cl
Output: 9500 nM

Task: What value of IC50 has been recorded for this entry: CNC(=O)c1cc(Oc2ccc(CNC(=O)Nc3cc(C)c(Cl)cc3OC3CCNCC3)cc2C)ccn1
Output: 36 nM

Task: What value of IC50 has been recorded for this entry: Cc1cc(NC(=O)NCc2ccc(Oc3ccncn3)c(C)c2)c(OCCN(C)C)cc1Cl
Output: 1200 nM

Task: What value of IC50 has been recorded for this entry: CNC(=O)c1cc(Oc2ccc(CNC(=O)Nc3cc(C(F)(F)F)ccc3OCC(=O)O)cc2)ccn1
Output: 1600 nM

Task: What value of IC50 has been recorded for this entry: CNC(=O)c1cc(Oc2ccc(CNC(=O)Nc3cc(Cl)cnc3Cl)cc2)ccn1
Output: 42 nM

Task: What value of IC50 has been recorded for this entry: Cc1cccc(NC(=O)NCc2ccc(Oc3ccncc3)cc2)c1C
Output: ≥ 100000 nM

Task: What value of IC50 has been recorded for this entry: O=C(NCc1ccc(Oc2ccncc2)cc1)Nc1cc(C(F)(F)F)cc(C(F)(F)F)c1
Output: 560 nM

Task: What value of IC50 has been recorded for this entry: CNC(=O)c1cc(Oc2ccc(CNC(=O)Nc3cc(C(F)(F)F)ccc3OCCN)cc2C)ccn1
Output: 40 nM

* * *

For each entry below, report its IC50 value.
# experimental target: His-tagged human recombinant DDR-2 kinase domain (His-TEV-DDR2 467-855 aa) (Homo sapiens, UniProt Q16832)
# Construct: His-TEV-DDR2 467-855 aa
# procedure text: Autophosphorylation assay for biochemical activity testing of DDR2 (HTRF)
# experimental parameters: 4 nM DDR2 kinase domain, 150 μM ATP, 150 min at 22° C.
Quick reminder: number only, in nM, skip the unit.

Task: What value of IC50 has been recorded for this entry: COc1ncc(C)cc1NC(=O)NCc1ccc(Oc2ccncc2)cc1 [compound 18]
Output: 100

Task: What value of IC50 has been recorded for this entry: CNC(=O)c1cc(Oc2ccc(CNC(=O)Nc3ncc(C(F)(F)F)cc3Cl)cc2)ccn1 [compound 7]
Output: 6600

Task: What value of IC50 has been recorded for this entry: CNC(=O)c1cc(Oc2ccc(CNC(=O)Nc3cccnc3)cc2)ccn1 [compound 5]
Output: 15000

Task: What value of IC50 has been recorded for this entry: CNC(=O)c1cc(Oc2ccc(CNC(=O)Nc3cc4ccccc4nc3OC)cc2)ccn1 [compound 11]
Output: 190

Task: What value of IC50 has been recorded for this entry: CNC(=O)c1cc(Oc2ccc(CNC(=O)Nc3cc(C(F)(F)F)cnc3Cl)cc2C)ccn1 [compound 26]
Output: 52

Task: What value of IC50 has been recorded for this entry: Cc1cc(Oc2ccc(CNC(=O)Nc3cc4ccccc4cn3)cc2C)ccn1 [compound 34]
Output: 11000

Task: What value of IC50 has been recorded for this entry: CNC(=O)c1cc(Oc2ccc(CNC(=O)Nc3cc(C)ccn3)cc2C)ccn1 [compound 15]
Output: 400

Task: What value of IC50 has been recorded for this entry: CNC(=O)c1cc(Oc2ccc(CNC(=O)Nc3cc(C)ccn3)cc2)ccn1 [compound 14]
Output: 570

Task: What value of IC50 has been recorded for this entry: COc1ncc(Cl)cc1NC(=O)NCc1ccc(Oc2ccnc(C)c2)c(C)c1 [compound 28]
Output: 110

Task: What value of IC50 has been recorded for this entry: CNC(=O)c1cc(Oc2ccc(COC(=O)Nc3cc(C(F)(F)F)cnc3O)cc2)ccn1 [compound 5]
Output: 610

Task: What value of IC50 has been recorded for this entry: CNC(=O)c1cc(Oc2ccc(CNC(=O)Nc3cc(Cl)cnc3OC)cc2)ccn1 [compound 21]
Output: 44

Task: What value of IC50 has been recorded for this entry: CNC(=O)c1cc(Oc2ccc(CNC(=O)Nc3ccc(C)cn3)cc2C)ccn1 [compound 13]
Output: 780

Task: What value of IC50 has been recorded for this entry: Cn1cc(C(F)(F)F)cc(NC(=O)NCc2ccc(Oc3ccnc4ccc(C(F)(F)F)cc34)cc2)c1=O [compound 2]
Output: 400

Task: What value of IC50 has been recorded for this entry: CNC(=O)c1cc(Oc2ccc(CNC(=O)Nc3cc(C)cnc3OC)cc2)ccn1 [compound 19]
Output: 63

Task: What value of IC50 has been recorded for this entry: CNC(=O)c1cc(Oc2ccc(COC(=O)Nc3ccc(Cl)c(C(F)(F)F)c3)cc2)ccn1 [compound 6]
Output: 420

Task: What value of IC50 has been recorded for this entry: Cc1cc(Oc2ccc(CNC(=O)Nc3cc(C(F)(F)F)cnc3Cl)cc2C)ccn1 [compound 30]
Output: 100

Task: What value of IC50 has been recorded for this entry: CNC(=O)c1cc(Oc2ccc(CNC(=O)Nc3cccnc3Cl)cc2)ccn1 [compound 16]
Output: 11000

* * *

# experimental target: HEK293 transfected with human DDR2 (Homo sapiens)
# Construct: expressed in transfected cells; host or cells: HEK293 (PLT460F_(DDR2)-P7-1)
# Sequence (Q16832 22-855): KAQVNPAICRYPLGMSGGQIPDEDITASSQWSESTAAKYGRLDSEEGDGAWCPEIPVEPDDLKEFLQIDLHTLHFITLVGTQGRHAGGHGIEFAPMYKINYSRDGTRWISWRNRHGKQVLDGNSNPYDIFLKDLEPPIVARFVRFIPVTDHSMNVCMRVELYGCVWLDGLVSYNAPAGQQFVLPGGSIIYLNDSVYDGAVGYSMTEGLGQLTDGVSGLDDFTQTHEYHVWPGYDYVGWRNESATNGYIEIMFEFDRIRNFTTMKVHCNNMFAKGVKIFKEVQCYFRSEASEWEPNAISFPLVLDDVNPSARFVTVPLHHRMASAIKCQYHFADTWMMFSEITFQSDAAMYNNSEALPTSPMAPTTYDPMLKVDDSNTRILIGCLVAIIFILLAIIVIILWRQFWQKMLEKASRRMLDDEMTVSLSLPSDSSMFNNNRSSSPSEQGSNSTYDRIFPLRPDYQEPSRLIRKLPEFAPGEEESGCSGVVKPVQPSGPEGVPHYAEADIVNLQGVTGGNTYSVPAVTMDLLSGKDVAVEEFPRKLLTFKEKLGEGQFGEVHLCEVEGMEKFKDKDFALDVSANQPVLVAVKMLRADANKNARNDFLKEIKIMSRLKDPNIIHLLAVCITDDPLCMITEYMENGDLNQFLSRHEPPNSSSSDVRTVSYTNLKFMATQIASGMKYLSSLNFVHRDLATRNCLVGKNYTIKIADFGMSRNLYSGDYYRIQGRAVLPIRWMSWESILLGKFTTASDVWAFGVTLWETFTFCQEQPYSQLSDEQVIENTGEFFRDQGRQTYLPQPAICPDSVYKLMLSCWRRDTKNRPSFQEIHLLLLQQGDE
# procedure text: Phospho-DDR2 cellular assay (collagen II induced DDR2 phosphorylation, ELISA)
# Type: cell-based
# experimental parameters: cellular phospho-DDR2; read-out: IC50 [p-DDR2]
Please respond with t when measured IC50 is strictly beneath 80 nM, and with f in all other cases.

Task: Is the reported IC50 for CNC(=O)c1cc(Oc2ccc(CNC(=O)Nc3ccc(Cl)cc3Cl)cc2)ccn1 strictly below 80 nM?
Output: f

Task: Is the reported IC50 for CNC(=O)c1cc(Oc2ccc(CNC(=O)Nc3cc(C(F)(F)F)ccc3OCCN)cc2C)ccn1 strictly below 80 nM?
Output: t

Task: Is the reported IC50 for CNC(=O)c1cc(Oc2ccc(CNC(=O)Nc3c(Cl)cncc3Cl)cc2)ccn1 strictly below 80 nM?
Output: f

Task: Is the reported IC50 for CNC(=O)c1cc(Oc2ccc(CNC(=O)Nc3cccc(S(N)(=O)=O)c3)cc2)ccn1 strictly below 80 nM?
Output: f

Task: Is the reported IC50 for CNC(=O)c1cc(Oc2ccc(CNC(=O)Nc3cc(C(F)(F)F)ccc3-n3cncn3)cc2C)ccn1 strictly below 80 nM?
Output: t

Task: Is the reported IC50 for CNC(=O)c1cc(Oc2ccc(CNC(=O)Nc3ccnc(Cl)c3)cc2)ccn1 strictly below 80 nM?
Output: f

Task: Is the reported IC50 for CNC(=O)c1cc(Oc2ccc(CNC(=O)Nc3cc(C(F)(F)F)ccc3CN)cc2C)ccn1 strictly below 80 nM?
Output: f

Task: Is the reported IC50 for CNCCNC(=O)c1cc(Oc2ccc(CNC(=O)Nc3ccc(Cl)c(C(F)(F)F)c3)cc2)ccn1 strictly below 80 nM?
Output: f

Task: Is the reported IC50 for NCCNC(=O)c1cc(Oc2ccc(CNC(=O)Nc3ccc(Cl)c(C(F)(F)F)c3)cc2)ccn1 strictly below 80 nM?
Output: f

Task: Is the reported IC50 for CNCCOc1cc(Cl)c(C)cc1NC(=O)NCc1ccc(Oc2ccnc(C(=O)NC)c2)cc1 strictly below 80 nM?
Output: t

Task: Is the reported IC50 for CNC(=O)c1cc(Oc2ccc(CNC(=O)Nc3ccc(Cl)c(Cl)c3)cc2)ccn1 strictly below 80 nM?
Output: f

Task: Is the reported IC50 for CNC(=O)c1cc(Oc2ccc(CNC(=O)Nc3ccc(F)cc3)cc2)ccn1 strictly below 80 nM?
Output: f

Task: Is the reported IC50 for CNC(=O)c1cc(Oc2ccc(CNC(=O)Nc3cc(C(F)(F)F)ccc3CC(=O)O)cc2C)ccn1 strictly below 80 nM?
Output: f

Task: Is the reported IC50 for CNC(=O)c1cc(Oc2ccc(CNC(=O)Nc3cc(Cl)c(Cl)cc3Cl)cc2)ccn1 strictly below 80 nM?
Output: f

Task: Is the reported IC50 for CNC(=O)c1cc(Oc2ccc(CNC(=O)Nc3cc(C(F)(F)F)ccc3N3CCNCC3)cc2C)ccn1 strictly below 80 nM?
Output: t

Task: Is the reported IC50 for CNC(=O)c1cc(Oc2ccc(CNC(=O)Nc3cc(Cl)cc(Cl)c3)cc2)ccn1 strictly below 80 nM?
Output: f

Task: Is the reported IC50 for CNC(=O)c1cc(Oc2ccc(CNC(=O)Nc3ccc4nsnc4c3)cc2)ccn1 strictly below 80 nM?
Output: f

Task: Is the reported IC50 for CNC(=O)c1cc(Oc2ccc(CNC(=O)Nc3cc(C(F)(F)F)ccc3CC(N)=O)cc2C)ccn1 strictly below 80 nM?
Output: f

Task: Is the reported IC50 for CNCCOc1ccc(C(F)(F)F)cc1NC(=O)NCc1ccc(Oc2ccnc(C(=O)NC)c2)c(C)c1 strictly below 80 nM?
Output: t

Task: Is the reported IC50 for CNC(=O)c1cc(Oc2ccc(C(C)NC(=O)Nc3cc(Cl)c(Cl)cc3Cl)cc2)ccn1 (centres unmarked) strictly below 80 nM?
Output: f

Task: Is the reported IC50 for CNC(=O)c1cc(Oc2ccc(CNC(=O)Nc3cc(Cl)ccc3C)cc2)ccn1 strictly below 80 nM?
Output: f

Task: Is the reported IC50 for O=C(NCc1ccc(Oc2ccnc(C(=O)O)c2)cc1)Nc1ccc(Cl)c(C(F)(F)F)c1 strictly below 80 nM?
Output: f

Task: Is the reported IC50 for CNC(=O)c1cc(Oc2ccc(CNC(=O)Nc3cc(Cl)c(C)cc3OC3CCNCC3)cc2)ccn1 strictly below 80 nM?
Output: t

Task: Is the reported IC50 for CNC(=O)c1cc(Oc2ccc(CNC(=O)Nc3cc(Cl)c(C)cc3OC)cc2)ccn1 strictly below 80 nM?
Output: t

Task: Is the reported IC50 for CNC(=O)c1cc(Oc2ccc(CNC(=O)Nc3cc(C(F)(F)F)ccc3OCC(N)=O)cc2)ccn1 strictly below 80 nM?
Output: t

Task: Is the reported IC50 for CNC(=O)c1cc(Oc2ccc(CNC(=O)Nc3cc(C(F)(F)F)c(Cl)cc3OCCCN)cc2)ccn1 strictly below 80 nM?
Output: f

Task: Is the reported IC50 for CNC(=O)c1cc(Oc2ccc(CNC(=O)Nc3nnc(C(F)(F)F)s3)cc2)ccn1 strictly below 80 nM?
Output: f

Task: Is the reported IC50 for CNC(=O)c1cc(Oc2ccc(CNC(=O)Nc3cc(C)c(Cl)cc3OCCN(C)C)cc2)ccn1 strictly below 80 nM?
Output: t

Task: Is the reported IC50 for CNC(=O)c1cc(Oc2ccc(CNC(=O)Nc3ccc(C)c(Cl)c3)cc2F)ccn1 strictly below 80 nM?
Output: t

Task: Is the reported IC50 for CNC(=O)c1cc(Oc2ccc(CNC(=O)Nc3cc(C)c(Cl)cc3OCCN)cc2C)ccn1 strictly below 80 nM?
Output: t

Task: Is the reported IC50 for CNC(=O)c1cc(Oc2ccc(CNC(=O)Nc3cc(C)c(Cl)cc3N(C)CCN(C)C)cc2C)ccn1 strictly below 80 nM?
Output: f

Task: Is the reported IC50 for CNC(=O)c1cc(Oc2ccc(CNC(=O)Nc3cc(C)c(Cl)cc3OCCCN(C)C)cc2C)ccn1 strictly below 80 nM?
Output: t
